Assay: Solubility in the real time in vitro dissolution receiving medium
Settings: 50 mM tris buffer, 37 °C, pH 7.4, aqueous buffer

{"columns": ["Sample Smiles", "solubility"],
 "data": [
  ["Cc1nc2n(c(=O)c1CCN1CCC(c3noc4cc(F)ccc34)CC1)CCCC2", "≥ 500 µg/mL"]
]}

FYI, the data here is from patent US6368632B1.
